Provenance of the data: patent US9242987B2

Molecular target: JAK2 (Homo sapiens, UniProt O60674)
Construct: endogenous in cells
Sequence (O60674 whole entry): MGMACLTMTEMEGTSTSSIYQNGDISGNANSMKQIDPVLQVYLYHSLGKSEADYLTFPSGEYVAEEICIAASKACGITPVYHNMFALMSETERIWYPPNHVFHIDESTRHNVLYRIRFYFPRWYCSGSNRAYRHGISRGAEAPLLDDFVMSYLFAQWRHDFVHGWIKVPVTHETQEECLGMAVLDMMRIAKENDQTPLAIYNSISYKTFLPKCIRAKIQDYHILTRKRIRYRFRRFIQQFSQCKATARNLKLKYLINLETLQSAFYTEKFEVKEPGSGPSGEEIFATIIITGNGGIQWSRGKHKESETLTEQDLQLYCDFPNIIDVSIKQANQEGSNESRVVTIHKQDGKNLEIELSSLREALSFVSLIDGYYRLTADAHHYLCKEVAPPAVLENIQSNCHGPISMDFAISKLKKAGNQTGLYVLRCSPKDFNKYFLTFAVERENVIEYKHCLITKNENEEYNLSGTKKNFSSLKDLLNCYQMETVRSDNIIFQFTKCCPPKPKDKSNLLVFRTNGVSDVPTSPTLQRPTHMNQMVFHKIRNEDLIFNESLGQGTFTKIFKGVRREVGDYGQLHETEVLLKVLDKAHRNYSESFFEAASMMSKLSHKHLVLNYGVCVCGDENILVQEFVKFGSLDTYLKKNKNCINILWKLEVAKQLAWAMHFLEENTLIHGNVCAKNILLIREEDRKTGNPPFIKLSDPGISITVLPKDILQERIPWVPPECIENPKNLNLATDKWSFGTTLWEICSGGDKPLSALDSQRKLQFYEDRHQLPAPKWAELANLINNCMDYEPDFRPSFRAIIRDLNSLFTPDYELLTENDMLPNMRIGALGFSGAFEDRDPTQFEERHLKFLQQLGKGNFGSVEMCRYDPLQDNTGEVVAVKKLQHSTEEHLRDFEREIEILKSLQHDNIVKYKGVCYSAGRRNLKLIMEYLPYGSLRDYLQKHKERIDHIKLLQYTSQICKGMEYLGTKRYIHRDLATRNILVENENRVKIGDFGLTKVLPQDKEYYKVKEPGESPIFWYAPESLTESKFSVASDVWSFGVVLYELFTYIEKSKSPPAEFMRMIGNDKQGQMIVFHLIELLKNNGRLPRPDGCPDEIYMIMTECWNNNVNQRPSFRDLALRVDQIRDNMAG
Assay: Kinobeads assay, JAK2
Conditions: mixed Molt4/Ramos cell lysate, dot blot detection
pIC50: −log10 of the molar value.
Quantity measured: pIC50

**Query** // output pIC50; input Cc1nn(C)cc1Nc1ncc2cnn(Cc3ccccc3)c2n1 [Example 110] ; system JAK2 (Homo sapiens, UniProt O60674)
**Result** ≤ 5.00

**Query** // output pIC50; input COc1nn(CC(F)F)cc1Nc1ncc2cnn(Cc3ccccc3C#N)c2n1 [Example 24] ; system JAK2 (Homo sapiens, UniProt O60674)
**Result** ≤ 5.00

**Query** // output pIC50; input Cn1cc(Nc2ncc3cnn(Cc4cc(F)cc(F)c4F)c3n2)cn1 [Example 158] ; system JAK2 (Homo sapiens, UniProt O60674)
**Result** > 7.00

**Query** // output pIC50; input CC(=O)n1cc(Nc2ncc3cnn(Cc4ccccc4F)c3n2)cn1 [Example 95] ; system JAK2 (Homo sapiens, UniProt O60674)
**Result** 5.00 to 6.00

**Query** // output pIC50; input COc1nn(CC(F)F)cc1Nc1ncc2cnn(Cc3ccccc3)c2n1 [Example 119] ; system JAK2 (Homo sapiens, UniProt O60674)
**Result** ≤ 5.00

**Query** // output pIC50; input COc1cccc(Cn2ncc3cnc(Nc4cnn(C)c4)nc32)c1 [Example 69] ; system JAK2 (Homo sapiens, UniProt O60674)
**Result** 5.00 to 6.00

**Query** // output pIC50; input Cn1cc(Nc2ncc3cnn(Cc4ccccc4C4CC4)c3n2)cn1 [Example 111] ; system JAK2 (Homo sapiens, UniProt O60674)
**Result** 5.00 to 6.00

**Query** // output pIC50; input Cc1cccc(F)c1Cn1ncc2cnc(Nc3cnn(C)c3)nc21 [Example 117] ; system JAK2 (Homo sapiens, UniProt O60674)
**Result** 5.00 to 6.00

**Query** // output pIC50; input Cc1nn(CCO)cc1Nc1ncc2cnn(Cc3ccccc3)c2n1 [Example 113] ; system JAK2 (Homo sapiens, UniProt O60674)
**Result** 5.00 to 6.00

---

Target: JAK2 (Homo sapiens)
Construct: endogenous in cells
Experiment: Kinobeads assay, JAK2
Details: mixed Molt4/Ramos cell lysate, dot blot detection
Can you tell me IC50 for the items I'm about to list?

**Query** // output IC50; input N#CCCCn1cc(Nc2ncc3cnn(Cc4ccccc4C#N)c3n2)cn1 [Example 20] ; system JAK2 (Homo sapiens)
**Result** 1 to 10 µM

**Query** // output IC50; input Cc1ccccc1Cn1ncc2cnc(Nc3cnn(C)c3)nc21 [Example 84] ; system JAK2 (Homo sapiens)
**Result** 1 to 10 µM

**Query** // output IC50; input Fc1c(Cl)cccc1Cn1ncc2cnc(Nc3cnn(CC(F)F)c3)nc21 [Example 156] ; system JAK2 (Homo sapiens)
**Result** 1 to 10 µM

**Query** // output IC50; input Cc1nn(CC(F)F)cc1Nc1ncc2cnn(Cc3ccccc3C(N)=O)c2n1 [Example 43] ; system JAK2 (Homo sapiens)
**Result** 1 to 10 µM

**Query** // output IC50; input CN(C)c1cccc(Cn2ncc3cnc(Nc4cnn(C)c4)nc32)n1 [Example 183] ; system JAK2 (Homo sapiens)
**Result** ≥ 10 µM

**Query** // output IC50; input Cn1cc(Nc2ncc3cnn(Cc4ccc(F)cc4F)c3n2)cn1 [Example 47] ; system JAK2 (Homo sapiens)
**Result** 1 to 10 µM

**Query** // output IC50; input COc1nn(CC(F)F)cc1Nc1ncc2cnn(-c3ccc(S(N)(=O)=O)cc3)c2n1 [Example 71] ; system JAK2 (Homo sapiens)
**Result** ≥ 10 µM

**Query** // output IC50; input Fc1cccc(Cn2ncc3cnc(Nc4cnn(CC(F)F)c4)nc32)c1F [Example 155] ; system JAK2 (Homo sapiens)
**Result** 1 to 10 µM

**Query** // output IC50; input Cn1cc(Nc2ncc3cnn(Cc4cccc(C#N)c4F)c3n2)cn1 [Example 107] ; system JAK2 (Homo sapiens)
**Result** 1 to 10 µM

---

Target: JAK3 (Homo sapiens, UniProt P52333)
Construct: endogenous in cells
Sequence (P52333 1-1124): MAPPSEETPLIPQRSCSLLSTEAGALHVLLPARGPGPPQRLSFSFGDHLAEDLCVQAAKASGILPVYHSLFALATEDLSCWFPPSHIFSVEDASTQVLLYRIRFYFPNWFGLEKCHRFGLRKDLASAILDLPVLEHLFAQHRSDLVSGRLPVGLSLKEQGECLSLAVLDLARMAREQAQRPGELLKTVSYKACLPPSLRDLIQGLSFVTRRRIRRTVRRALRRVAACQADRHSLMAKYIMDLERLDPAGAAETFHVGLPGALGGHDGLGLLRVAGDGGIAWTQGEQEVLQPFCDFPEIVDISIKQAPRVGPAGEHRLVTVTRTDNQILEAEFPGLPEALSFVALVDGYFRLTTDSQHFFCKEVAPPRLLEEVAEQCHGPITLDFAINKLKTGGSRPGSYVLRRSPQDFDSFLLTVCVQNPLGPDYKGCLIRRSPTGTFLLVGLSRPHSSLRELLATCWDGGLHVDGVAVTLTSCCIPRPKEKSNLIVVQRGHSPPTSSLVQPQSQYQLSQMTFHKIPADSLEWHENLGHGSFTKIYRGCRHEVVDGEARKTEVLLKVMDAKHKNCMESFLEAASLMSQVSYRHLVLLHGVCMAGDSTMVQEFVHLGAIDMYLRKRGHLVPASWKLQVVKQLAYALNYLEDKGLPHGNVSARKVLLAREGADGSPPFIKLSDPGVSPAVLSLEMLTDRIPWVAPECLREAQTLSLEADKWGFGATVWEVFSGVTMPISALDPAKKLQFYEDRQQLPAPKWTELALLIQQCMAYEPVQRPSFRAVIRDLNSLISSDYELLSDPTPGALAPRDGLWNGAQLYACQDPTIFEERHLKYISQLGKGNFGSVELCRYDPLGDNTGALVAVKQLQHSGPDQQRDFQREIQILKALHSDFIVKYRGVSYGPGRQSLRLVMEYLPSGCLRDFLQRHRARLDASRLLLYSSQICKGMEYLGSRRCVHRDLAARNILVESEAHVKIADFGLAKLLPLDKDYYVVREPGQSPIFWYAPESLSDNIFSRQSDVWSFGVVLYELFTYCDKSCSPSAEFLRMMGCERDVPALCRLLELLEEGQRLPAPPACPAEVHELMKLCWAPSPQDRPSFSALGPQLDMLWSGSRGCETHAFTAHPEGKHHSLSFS
Test: Kinobeads assay, JAK3
Details: mixed Molt4/Ramos cell lysate, dot blot detection
pIC50: −log10 of the molar value.
Can you tell me pIC50 for the items I'm about to list?

**Query** Answer with reported pIC50 of CC(C)n1ccc(Nc2ncc3cnn(Cc4ccccc4C#N)c3n2)n1
**Result** 5.00 to 6.00

**Query** Answer with reported pIC50 of Cc1c(Nc2ncc3cnn(Cc4ccccc4C#N)c3n2)cnn1C
**Result** 6.00 to 7.00

**Query** Answer with reported pIC50 of Cn1cc(Nc2ncc3cnn(Cc4ccc(F)cc4F)c3n2)cn1
**Result** 6.00 to 7.00

**Query** Answer with reported pIC50 of Cn1cc(Nc2ncc3cnn(Cc4cccc(OCC5CC5)c4)c3n2)cn1
**Result** 6.00 to 7.00

**Query** Answer with reported pIC50 of Cn1cc(Nc2ncc3cnn(Cc4cccc(OC[C@H]5CCCO5)n4)c3n2)cn1
**Result** > 7.00

**Query** Answer with reported pIC50 of OCCn1cc(Nc2ncc3cnn(Cc4c(F)ccc(N5CCNCC5)c4F)c3n2)cn1
**Result** > 7.00

**Query** Answer with reported pIC50 of NC(=O)c1ccccc1Cn1ncc2cnc(Nc3cnn(CC(F)F)c3)nc21
**Result** > 7.00

**Query** Answer with reported pIC50 of CO[C@@H](C)COc1cccc(Cn2ncc3cnc(Nc4cnn(C)c4)nc32)c1
**Result** > 7.00

**Query** Answer with reported pIC50 of Cn1cc(Nc2ncc3cnn(CCc4ccccc4)c3n2)cn1
**Result** 6.00 to 7.00

---

Biological target: JAK2 (Homo sapiens, UniProt O60674)
Construct: endogenous in cells
Assay: Kinobeads assay, JAK2
Details: mixed Molt4/Ramos cell lysate, dot blot detection
pIC50: −log10 of the molar value.
Quantity measured: pIC50

**Query** Answer with reported pIC50 of Cn1cc(Nc2ncc3cnn(Cc4cccc(Cl)c4)c3n2)cn1 [Example 70]
**Result** 6.00 to 7.00

**Query** Answer with reported pIC50 of Cn1cc(Nc2ncc3cnn(Cc4c(F)cccc4Cl)c3n2)cn1 [Example 63]
**Result** 6.00 to 7.00

**Query** Answer with reported pIC50 of NS(=O)(=O)c1ccc(-n2ncc3cnc(Nc4cnn(CC(F)F)c4)nc32)cc1 [Example 127]
**Result** 5.00 to 6.00

**Query** Answer with reported pIC50 of NC(=O)n1cc(Nc2ncc3cnn(Cc4ccccc4F)c3n2)cn1 [Example 103]
**Result** 5.00 to 6.00

**Query** Answer with reported pIC50 of Cn1cc(Nc2ncc3cnn(Cc4cccc(-c5ccncc5)c4)c3n2)cn1 [Example 230]
**Result** ≤ 5.00

**Query** Answer with reported pIC50 of Cn1cc(Nc2ncc3cnn(-c4ccc5c(c4)NC(=O)CO5)c3n2)cn1 [Example 219]
**Result** 6.00 to 7.00

**Query** Answer with reported pIC50 of Cc1nn(CC(F)F)cc1Nc1ncc2cnn(Cc3cc(F)ccc3C#N)c2n1 [Example 151]
**Result** 6.00 to 7.00

**Query** Answer with reported pIC50 of Cn1cc(Nc2ncc3cnn(Cc4ccccc4C#N)c3n2)cn1 [Example 1]
**Result** 5.00 to 6.00

**Query** Answer with reported pIC50 of COCCNC(=O)c1cccc(Cn2ncc3cnc(Nc4cnn(C)c4)nc32)c1 [Example 200]
**Result** ≤ 5.00
